Assay system: MERTK (UniProt Q12866)
Sequence (Q12866 whole entry, looked up): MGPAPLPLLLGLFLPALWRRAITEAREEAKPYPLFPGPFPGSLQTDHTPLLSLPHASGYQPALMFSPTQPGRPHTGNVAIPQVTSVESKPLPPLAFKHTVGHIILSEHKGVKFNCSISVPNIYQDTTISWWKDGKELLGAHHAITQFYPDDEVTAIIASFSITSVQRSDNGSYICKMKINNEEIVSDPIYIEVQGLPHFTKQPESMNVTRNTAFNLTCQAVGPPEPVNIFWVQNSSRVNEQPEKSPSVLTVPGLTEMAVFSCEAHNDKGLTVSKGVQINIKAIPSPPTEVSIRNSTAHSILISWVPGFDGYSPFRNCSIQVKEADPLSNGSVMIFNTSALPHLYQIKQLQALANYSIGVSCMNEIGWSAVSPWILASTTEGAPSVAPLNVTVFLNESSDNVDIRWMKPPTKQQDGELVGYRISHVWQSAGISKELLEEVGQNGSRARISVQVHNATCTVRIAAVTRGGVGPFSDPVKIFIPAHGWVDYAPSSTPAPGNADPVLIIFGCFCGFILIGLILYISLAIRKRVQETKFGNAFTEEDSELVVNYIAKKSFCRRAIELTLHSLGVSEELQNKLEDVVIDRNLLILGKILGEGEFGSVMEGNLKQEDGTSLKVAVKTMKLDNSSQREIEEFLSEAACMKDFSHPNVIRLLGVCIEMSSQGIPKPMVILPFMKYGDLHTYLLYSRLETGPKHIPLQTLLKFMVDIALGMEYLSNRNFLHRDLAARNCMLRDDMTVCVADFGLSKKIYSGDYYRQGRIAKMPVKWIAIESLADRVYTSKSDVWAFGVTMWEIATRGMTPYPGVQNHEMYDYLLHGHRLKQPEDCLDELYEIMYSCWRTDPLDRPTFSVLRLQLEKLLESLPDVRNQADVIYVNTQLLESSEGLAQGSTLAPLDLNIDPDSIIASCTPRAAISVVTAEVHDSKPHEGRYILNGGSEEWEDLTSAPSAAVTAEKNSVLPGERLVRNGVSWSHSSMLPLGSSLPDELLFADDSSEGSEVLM
Test: phosphorylation enrichment, bacterial display (enrichment ratio); higher = better substrate or ligand; peptides without Tyr show the background;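 also: 11-residue human phosphosite peptides and single-mutation variants displayed on the E. coli surface, counted by deep sequencing, each peptide's frequency after selection divided by its frequency in the unselected input library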;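 also: frequency after pTyr selection over input frequency; kinase dosed for 20-30% of maximal phosphorylation in three min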
Here the recorded phosphorylation enrichment is given for each entry.

Solved entries (count: 3):
Request: Sample SDPIIYTLENV [ADGRE1_Y534_I539V] — what was its phosphorylation enrichment?
Result: 1.09

Request: Look up phosphorylation enrichment for this sequence: ELSDGYWVVSN [TPP1_Y459_A454E]
Result: 0.396

Request: Quick one: phosphorylation enrichment for RRIEKYVDQGK [IRAK3_Y61_H57R] ?
Result: 0.571

Further cases:
Request: Dear colleague, I am looking for the recorded phosphorylation enrichment of the following sequence: ECKLRYSRKEG [PTPN11_Y263_L262R]
Result: 0.523

Value source: the supplement of paper PMC10065799
